- system tested: human TfR1 (Homo sapiens, UniProt P02786)
- Sequence (P02786 89-760): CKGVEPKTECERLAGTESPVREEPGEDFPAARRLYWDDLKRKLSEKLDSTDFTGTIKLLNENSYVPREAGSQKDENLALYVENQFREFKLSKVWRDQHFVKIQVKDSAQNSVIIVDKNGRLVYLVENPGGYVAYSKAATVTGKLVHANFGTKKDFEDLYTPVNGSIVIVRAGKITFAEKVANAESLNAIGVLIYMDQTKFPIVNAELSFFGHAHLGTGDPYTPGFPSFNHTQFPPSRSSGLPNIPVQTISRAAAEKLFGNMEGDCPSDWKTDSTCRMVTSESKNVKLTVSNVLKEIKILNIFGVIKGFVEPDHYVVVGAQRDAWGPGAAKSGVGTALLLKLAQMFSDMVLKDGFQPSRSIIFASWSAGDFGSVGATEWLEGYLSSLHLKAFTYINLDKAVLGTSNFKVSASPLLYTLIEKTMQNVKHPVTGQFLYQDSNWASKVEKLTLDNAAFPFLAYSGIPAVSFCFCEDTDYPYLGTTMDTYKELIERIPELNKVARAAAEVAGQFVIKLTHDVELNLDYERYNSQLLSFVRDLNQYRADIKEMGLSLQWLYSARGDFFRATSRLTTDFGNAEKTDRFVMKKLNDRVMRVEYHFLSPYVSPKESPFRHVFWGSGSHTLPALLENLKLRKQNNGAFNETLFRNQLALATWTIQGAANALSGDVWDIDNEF
- protocol text: biochemical
- Type: binding
- Set-up: His6-tagged TfR1 (a.a. 89-760) (ACRO Biosystems, CD1-H5243 and TFR-C524a); His6; purchased R&D Systems or Acro Biosystems 2474-TR or CD1-H5243
- run parameters: Human TfR1 Kd (nM)

compound | system tested | Kd, nM
CC[C@H](C)[C@@H]1NC(=O)[C@@H]2CSCC(=O)N3CN(CN(C3)C(=O)CSC[C@@H](C(=O)N[C@@H](C)C(N)=O)NC(=O)[C@H](Cc3ccc(O)c(C(C)(C)C)c3)NC(=O)[C@H](CO)NC1=O)C(=O)CSC[C@H](NC(=O)[C@H](C)N)C(=O)N[C@@H](CO)C(=O)N1CCC[C@H]1C(=O)N[C@@H](CC(=O)O)C(=O)N[C@@H](C)C(=O)N[C@@H](Cc1c[nH]cn1)C(=O)N[C@@H](CC(C)C)C(=O)NCC(=O)N2 [BCY16079, A-(SEQ ID NO: 37)-A] | human TfR1 (Homo sapiens, UniProt P02786) | 60
